Values from patent EP4592286A1

Experimental target: LRRK2 (Homo sapiens, UniProt Q5S007)
Sequence (Q5S007 whole entry): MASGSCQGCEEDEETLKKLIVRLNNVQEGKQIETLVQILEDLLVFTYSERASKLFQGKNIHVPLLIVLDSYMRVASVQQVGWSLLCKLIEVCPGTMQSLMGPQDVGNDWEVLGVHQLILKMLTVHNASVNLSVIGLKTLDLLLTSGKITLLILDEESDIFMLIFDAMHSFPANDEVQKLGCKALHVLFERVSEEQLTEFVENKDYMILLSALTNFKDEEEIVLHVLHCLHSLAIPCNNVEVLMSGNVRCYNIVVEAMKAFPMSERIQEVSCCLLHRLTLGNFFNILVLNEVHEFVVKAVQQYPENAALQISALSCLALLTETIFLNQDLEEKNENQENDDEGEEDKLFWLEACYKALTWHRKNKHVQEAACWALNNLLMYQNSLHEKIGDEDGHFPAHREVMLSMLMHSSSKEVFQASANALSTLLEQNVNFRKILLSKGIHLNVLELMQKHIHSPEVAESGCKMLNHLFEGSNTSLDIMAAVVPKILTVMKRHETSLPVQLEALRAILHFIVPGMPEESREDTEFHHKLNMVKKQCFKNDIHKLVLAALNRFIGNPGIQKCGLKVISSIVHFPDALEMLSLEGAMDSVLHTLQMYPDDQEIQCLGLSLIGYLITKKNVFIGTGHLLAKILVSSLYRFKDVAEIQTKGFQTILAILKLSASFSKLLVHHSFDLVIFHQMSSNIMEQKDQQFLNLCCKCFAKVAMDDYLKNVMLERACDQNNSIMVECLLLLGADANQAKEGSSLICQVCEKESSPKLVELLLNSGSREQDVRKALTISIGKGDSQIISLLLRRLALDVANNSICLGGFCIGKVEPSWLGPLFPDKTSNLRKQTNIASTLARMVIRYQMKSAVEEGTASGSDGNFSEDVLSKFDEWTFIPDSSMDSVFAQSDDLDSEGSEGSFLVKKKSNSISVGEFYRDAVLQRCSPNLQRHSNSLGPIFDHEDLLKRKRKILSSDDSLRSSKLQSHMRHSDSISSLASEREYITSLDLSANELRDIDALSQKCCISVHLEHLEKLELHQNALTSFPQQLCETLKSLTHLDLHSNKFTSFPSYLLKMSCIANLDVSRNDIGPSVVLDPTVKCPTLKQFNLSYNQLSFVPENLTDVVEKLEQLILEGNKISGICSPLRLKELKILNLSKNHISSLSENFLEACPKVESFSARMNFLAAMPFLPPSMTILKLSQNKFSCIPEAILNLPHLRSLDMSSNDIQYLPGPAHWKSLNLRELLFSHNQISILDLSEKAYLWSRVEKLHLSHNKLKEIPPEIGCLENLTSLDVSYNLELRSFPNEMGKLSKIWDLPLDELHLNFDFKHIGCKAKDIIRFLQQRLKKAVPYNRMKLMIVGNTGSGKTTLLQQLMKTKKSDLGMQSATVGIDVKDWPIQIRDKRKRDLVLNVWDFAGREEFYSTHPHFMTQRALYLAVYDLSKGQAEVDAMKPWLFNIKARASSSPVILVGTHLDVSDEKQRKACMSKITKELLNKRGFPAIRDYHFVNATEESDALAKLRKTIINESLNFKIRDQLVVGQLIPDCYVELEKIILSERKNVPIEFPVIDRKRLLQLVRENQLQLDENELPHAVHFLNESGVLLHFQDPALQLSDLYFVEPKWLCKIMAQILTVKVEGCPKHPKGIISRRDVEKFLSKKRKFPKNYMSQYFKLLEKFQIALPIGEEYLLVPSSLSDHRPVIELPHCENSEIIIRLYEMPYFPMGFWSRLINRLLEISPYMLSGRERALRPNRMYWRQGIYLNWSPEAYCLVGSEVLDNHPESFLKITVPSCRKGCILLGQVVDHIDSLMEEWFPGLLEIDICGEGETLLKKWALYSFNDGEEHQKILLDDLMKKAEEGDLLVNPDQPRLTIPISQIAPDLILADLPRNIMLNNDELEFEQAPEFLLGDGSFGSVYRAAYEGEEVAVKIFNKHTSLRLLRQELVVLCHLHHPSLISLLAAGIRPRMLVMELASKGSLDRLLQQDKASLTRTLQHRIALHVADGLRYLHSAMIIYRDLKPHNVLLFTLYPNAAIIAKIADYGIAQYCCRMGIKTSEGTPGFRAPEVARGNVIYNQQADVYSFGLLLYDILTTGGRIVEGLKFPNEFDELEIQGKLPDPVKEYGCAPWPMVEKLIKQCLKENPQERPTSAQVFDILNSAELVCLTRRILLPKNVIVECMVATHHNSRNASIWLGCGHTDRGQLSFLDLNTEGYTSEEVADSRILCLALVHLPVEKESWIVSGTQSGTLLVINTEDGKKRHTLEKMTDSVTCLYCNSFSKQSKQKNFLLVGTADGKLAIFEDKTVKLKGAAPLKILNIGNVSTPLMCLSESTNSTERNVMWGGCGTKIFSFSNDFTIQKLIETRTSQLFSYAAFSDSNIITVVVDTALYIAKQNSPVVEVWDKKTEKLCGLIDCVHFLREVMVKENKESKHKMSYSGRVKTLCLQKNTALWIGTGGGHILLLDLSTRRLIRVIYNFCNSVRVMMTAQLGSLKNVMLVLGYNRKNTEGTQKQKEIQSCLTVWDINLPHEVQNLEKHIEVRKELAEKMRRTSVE
Assay protocol: experiment of inhibiting kinase activity, LRRK2
Type: biochemical
Experimental parameters: at 100 nM; read-out: inhibition rate LRRK2
Here the recorded inhibition at 0.1 µM is given for each entry.

Past entries and their recorded results:
CN1CCOc2ccc(Nc3nc(Nc4cccc(S(=O)(=O)NC(C)(C)C)c4)c4cc[nH]c4n3)cc2OCC1 [Example 21] :: 40 to 79%
CN1CCOc2ccc(Nc3nc(-c4ccc(C(=O)NCC#N)cc4)c4cn[nH]c4n3)cc2OCC1 [Example 38] :: 40 to 79%

API: the following record is the query input.
Requested read-out: inhibition at 0.1 µM. Entry: CCS(=O)(=O)N1CC(CC#N)(n2cc(-c3nc(Nc4ccc5c(c4)OCCN(C)CCO5)nc4[nH]ncc34)cn2)C1 [Example 29]
40 to 79%
